The origin of these recorded values is PubChem BioAssay (NCI).

Test system: NCI-H322M lung
ASSAY_INFO: NCI-60 one-dose screen, 48 h (100 = growth as untreated, 0 = no growth, -100 = all killed)
SETTINGS: 10 µM
Compounds without any hit were thinned out: in the full panel of roughly 83,000, 20% have a hit.
growth values by entry

{"columns": ["MOLECULE", "growth, %"],
 "data": [
  ["O=NN(CC(=O)N/N=C/C=C\\c1ccccc1)CC(=O)N/N=C/C=C/c1ccccc1", 91.2],
  ["CC1(C)CC(=O)c2c(nc3ccc(Cl)cc3c2-c2ccccc2)C1", 103],
  ["N#C/C(=C\\N1C(=O)/C(=C/c2cccc([N+](=O)[O-])c2)SC1=S)c1nc2ccccc2s1", 92.9],
  ["COc1cc(-c2nc3ccc(C)cc3[nH]2)ccc1OCc1nnc(-c2ccc(CC(C)C)cc2)o1", 97.2],
  ["[O-]c1c[n+](-c2ccc(Cl)cc2)no1", 94.1],
  ["O=C1/C(=C/c2cccs2)CCC/C1=C\\c1cccs1", 85.3],
  ["O=C(Nc1cccc(Cl)c1)Nc1cc2ncncc2cc1OCc1cccc(F)c1", 15.5],
  ["COc1ccc(/C(=C/c2cc(OC)c(OC)cc2[N+](=O)[O-])C(=O)O)cc1", 118],
  ["NC1CCC(Nc2nc(NCc3cc(Cl)ccc3O)c3ncn(C4CCCC4)c3n2)CC1 (stereo unspecified)", 10.9],
  ["CC(C)/C(=N/O)c1ccccc1", 133],
  ["Nc1cc(O)cc(O)c1", 104]
]}

====

Test system: ACHN renal
ASSAY_INFO: NCI-60 one-dose screen, 48 h (100 = growth as untreated, 0 = no growth, -100 = all killed)
SETTINGS: 10 µM
Procedure: Growth inhibition of the ACHN human tumor cell line is measured as a screen for anti-cancer activity. Cells are grown in 96 well plates and exposed to the test compound for 48 hours. Compounds are tested at a single concentration, which is 10^-5 M for most compounds. The reported endpoint is percent growth (GI% or GIPRCNT), where numbers from 0 - 100% represent growth inhibition, and numbers from -100% - 0 represent cell death. For example, a value of 40 represents 60% growth inhibition. […]
About 83,000 compounds went through this panel and 20% of them were active in at least one assay; those are over-represented in the sample as a whole.
// Not satisfied strictly below 90% in growth; Satisfied otherwise

{"columns": ["COMPOUND", "LABEL_CLASS"],
 "data": [
  ["OC(CNC1CCCC1)Cn1c2ccccc2c2ccccc21 (configuration not stated)", "Not satisfied"],
  ["NC1CCC(Nc2nc(NCc3cc(Cl)ccc3O)c3ncn(C4CCCC4)c3n2)CC1 (configuration not stated)", "Not satisfied"],
  ["O=S(=O)(NCl)c1ccccc1", "Satisfied"],
  ["O=C(Cn1ccc(=O)[nH]c1=O)c1ccc([N+](=O)[O-])o1", "Satisfied"],
  ["CCCCC(CC#N)(CCC)CCC", "Satisfied"],
  ["CC(=O)c1c(O)cc2c3c1OC(C)(C)C1CCC(C)(CC31)O2 (configuration not stated)", "Satisfied"],
  ["O=C(COc1ccc(Cl)cc1Cl)Oc1coc(CSc2nc3ccccc3s2)cc1=O", "Satisfied"],
  ["CCCCC(=O)N(c1ccc(Nc2c3ccccc3nc3cc([N+](=O)[O-])ccc23)cc1)S(C)(=O)=O", "Not satisfied"],
  ["COc1cc(-c2n/c(=C\\c3c(O)[nH]c4ccccc34)cc3c2=Nc2ccccc2-3)cc(OC)c1OC", "Not satisfied"],
  ["N#CN1CC[C@H](C(=O)Nc2ncc(-c3ccncc3)s2)C1", "Not satisfied"],
  ["COC(=O)c1ccc(Cn2ccc(=O)[nH]c2=O)cc1", "Satisfied"],
  ["CC(C)c1[nH]nc2c(NCc3ccc(-c4ccccn4)cc3)nc(SCCN(C)C)nc12", "Not satisfied"],
  ["O=C(/C=C/c1nnc2n(Cc3ccccc3)c(=O)c3c4c(sc3n12)CCCC4)c1ccccc1", "Satisfied"],
  ["CCc1cc2n(n1)-c1ncc(C(=O)OC)cc1Oc1ccccc1-2", "Satisfied"],
  ["CCOC(=O)CSC(=S)SCC(=O)OCC", "Satisfied"],
  ["C[n+]1c(/C=C/c2c[nH]c3ccccc23)ccc2ccccc21", "Not satisfied"],
  ["COc1ccc(-c2nc(NC(=O)CS(=O)(=O)c3ccc(F)cc3)sc2C)cc1", "Not satisfied"],
  ["COc1ccc(C(=O)n2nc(CC(=O)NCc3ccccc3)nc2N)cc1", "Satisfied"],
  ["NC1CCC(Nc2nc(NCc3ccc(-c4ccco4)nc3)c3ncn(C4CCCC4)c3n2)CC1 (configuration not stated)", "Not satisfied"],
  ["CCOC(=O)CNC(=O)Nc1ccc(Oc2ccc(NC(=O)NCC(=O)OCC)cc2)cc1", "Satisfied"],
  ["NC1CCC(Nc2nc(NCc3ccc(-c4cccs4)nc3)c3ncn(C4CCCC4)c3n2)CC1 (configuration not stated)", "Not satisfied"],
  ["Cn1cnc([N+](=O)[O-])c1/C=C1\\Oc2ccc(Cl)cc2C1=O", "Not satisfied"],
  ["CCOc1ccc(-n2cc(-c3ccc(N(C)C)cc3)[n+]3c2CCCCC3)cc1", "Not satisfied"],
  ["COc1cccc2c1C(=O)c1c(O)c3c(c(O)c1C2=O)C[C@@](O)(C(=O)COC(=O)c1ccccc1)C[C@@H]3OC1CC(N)C(O)C(C)O1 (some centres not stated)", "Not satisfied"],
  ["Cc1cc(OI)c(C(C)C)cc1-c1cc(C(C)C)c(OI)cc1C", "Satisfied"],
  ["Cc1ccccc1[P+](Cc1ccccc1)(c1ccccc1)c1ccccc1", "Not satisfied"],
  ["CCOC(=O)[C@@H](Cc1ccccc1)NC(=O)c1[nH]c2ccc(Cl)cc2c(=O)c1C", "Satisfied"],
  ["COc1cc(/C=C2\\C(=O)Nc3cc(C)c(O)cc32)cc(OC)c1OC", "Not satisfied"],
  ["CCOC(=O)c1cc2c(n1Cc1cc(OC)cc(OC)c1)-c1oncc1CC2", "Not satisfied"],
  ["CC(C)OCc1cc(CN2CCN(c3cccc(Cl)c3)CC2)c(O)c2ncccc12", "Not satisfied"],
  ["Nc1ccc(Sc2ccc3c4c2cccc4c(=O)n2c4ccccc4nc32)cc1", "Not satisfied"],
  ["N=C(N)c1ccc(-c2ccc(-c3cccs3)s2)nc1", "Not satisfied"],
  ["Nc1c(C(=O)NC2CCCCC2)sc2nc3c(cc12)C(=O)CCC3", "Satisfied"],
  ["O=C1/C(=C/c2cccs2)CCC/C1=C\\c1cccs1", "Satisfied"],
  ["CC(C)C[C@H](NC(=O)Cn1ccc2ccccc2c1=O)B(O)O", "Not satisfied"],
  ["Nc1ccc(C2=CC(c3ccc(Cl)cc3)N3C=CSC3=N2)cc1 (configuration not stated)", "Not satisfied"],
  ["C[C@]12CC[C@H]3[C@@H](CCC4=CC(=O)CC[C@@]43C)[C@@H]1CC[C@@H]2c1csc(N)n1", "Not satisfied"],
  ["COc1ccc(/C=C2\\CCC3C(CCCC34OCCO4)C2=O)cc1 (configuration not stated)", "Satisfied"],
  ["CCCCn1c(=O)[nH]c2c(c1=O)C(c1ccc(Cl)cc1)c1c([nH]c(=O)n(CCCC)c1=O)N2", "Satisfied"],
  ["COc1cc(C)c2sc3ccccc3c(=O)c2c1NCCN(C)C", "Not satisfied"]
]}

====

System: SK-MEL-5 melanoma
ASSAY_INFO: NCI-60 one-dose screen, 48 h
SETTINGS: 10 µM
This is part of a sample that, as a whole, favours compounds with a hit. Of some 83,000 tested, about 20% had one in any assay. Activity calls are given as the source filed them. Rule for the calls: active = growth percent below 10; inactive = the rest.
Labels: true (1) (active), false (0) (inactive)

{"columns": ["COMPOUND", "LABEL_CLASS"],
 "data": [
  ["C=CCc1cc(Nc2c3ccc(Cl)cc3nc3ccc(OC)cc23)cc(CN(CC)CC)c1O", "true (1)"],
  ["COc1cc(-c2nc3ccc(C)cc3[nH]2)ccc1OCC(=O)N=Nc1c(O)[nH]c2ccccc12", "false (0)"],
  ["COc1cc(-c2n/c(=C\\c3c(O)[nH]c4ccccc34)cc3c2=Nc2ccccc2-3)cc(OC)c1OC", "true (1)"],
  ["COc1ccc2nc(/C=C/c3ccc(N(C)C)cc3)sc2c1", "false (0)"],
  ["COc1cccc2c1C(=O)c1c(O)c3c(c(O)c1C2=O)C[C@@](O)(C(=O)COC(=O)c1ccccc1)C[C@@H]3OC1CC(N)C(O)C(C)O1 (stereo partly specified)", "true (1)"],
  ["Cc1cc(OI)c(C(C)C)cc1-c1cc(C(C)C)c(OI)cc1C", "false (0)"],
  ["COc1cc([C@@H]2c3cc4c(cc3[C@H](SC(=N)N)[C@H]3COC(=O)[C@H]23)OCO4)cc(OC)c1OC", "true (1)"],
  ["COc1cc2ccnc(C=O)c2cc1OC", "false (0)"],
  ["Nc1ncncc1-c1ccc(F)cc1", "false (0)"],
  ["CCCCCCCOc1cccc(/C=C2/C(=O)N=C3SCCCN32)c1", "false (0)"],
  ["CC(=O)OC1Oc2ccccc2-c2oc(=O)c(-c3cc(=O)oc4cc(O)ccc34)cc21 (stereo unspecified)", "false (0)"],
  ["COc1cc(Cn2c(-c3ccccc3)c(Cl)c3c2-c2oncc2CC3)cc(OC)c1", "false (0)"],
  ["CCN1CCOC1C(C)C (stereo unspecified)", "false (0)"],
  ["COc1ccc(Cn2cc3c(c2-c2cc(OC)c(OC)c(OC)c2)CCc2cnoc2-3)cc1N", "true (1)"],
  ["Nc1ncc(-c2ccc(C(F)(F)F)cc2)c(NC2CCCCCC2)n1", "true (1)"],
  ["CCc1ccc(Nc2cc(C)nc3nc(C)nn23)cc1", "true (1)"],
  ["Cc1ccccc1[P+](Cc1ccccc1)(c1ccccc1)c1ccccc1", "true (1)"],
  ["O=C(N/N=C/c1ccccc1O)c1ccccc1", "false (0)"],
  ["COc1cccc(C(=O)NNc2nc(N3CCN(C4CCCCC4)CC3)nc(N3CCN(C(c4ccccc4)c4ccccc4)CC3)n2)c1", "true (1)"],
  ["COc1cc(/C=C2\\C(=O)Nc3cc(C)c(O)cc32)cc(OC)c1OC", "false (0)"],
  ["CCOC(=O)c1cc2c(n1Cc1ccccc1)-c1oncc1CC2", "false (0)"]
]}
